target: FGFR1 (UniProt P11362); assay: phosphorylation enrichment, bacterial display (enrichment ratio); higher = better substrate or ligand; peptides without Tyr show the background;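 also: 11-residue human phosphosite peptides and single-mutation variants displayed on the E. coli surface, counted by deep sequencing, each peptide's frequency after selection divided by its frequency in the unselected input library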;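 also: frequency after pTyr selection over input frequency; kinase dosed for 20-30% of maximal phosphorylation in three min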
Sequence (P11362 whole entry, looked up): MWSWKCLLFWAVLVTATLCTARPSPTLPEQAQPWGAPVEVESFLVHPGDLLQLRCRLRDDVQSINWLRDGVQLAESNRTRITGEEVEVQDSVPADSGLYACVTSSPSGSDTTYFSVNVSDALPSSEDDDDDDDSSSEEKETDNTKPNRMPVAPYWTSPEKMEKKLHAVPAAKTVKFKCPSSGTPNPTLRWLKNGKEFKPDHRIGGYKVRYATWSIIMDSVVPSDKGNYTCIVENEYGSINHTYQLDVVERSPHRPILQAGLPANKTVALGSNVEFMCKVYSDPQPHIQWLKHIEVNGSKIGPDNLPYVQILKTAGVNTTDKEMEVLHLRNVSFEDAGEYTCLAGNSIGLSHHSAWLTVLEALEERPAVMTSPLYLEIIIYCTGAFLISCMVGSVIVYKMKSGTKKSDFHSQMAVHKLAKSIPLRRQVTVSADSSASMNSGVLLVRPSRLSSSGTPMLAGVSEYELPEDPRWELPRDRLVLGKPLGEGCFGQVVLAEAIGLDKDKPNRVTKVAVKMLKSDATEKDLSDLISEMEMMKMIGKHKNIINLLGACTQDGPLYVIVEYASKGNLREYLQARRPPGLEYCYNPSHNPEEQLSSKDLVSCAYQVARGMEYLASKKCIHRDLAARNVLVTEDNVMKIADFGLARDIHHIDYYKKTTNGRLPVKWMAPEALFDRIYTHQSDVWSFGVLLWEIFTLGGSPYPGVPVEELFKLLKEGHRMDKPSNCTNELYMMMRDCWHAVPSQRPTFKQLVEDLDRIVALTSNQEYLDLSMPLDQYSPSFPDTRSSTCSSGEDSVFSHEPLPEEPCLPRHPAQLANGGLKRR
result_type: phosphorylation enrichment
Enter the number alone.

Short answer for SIKNKYVTALY [KCNH2_Y611_D609N] : phosphorylation enrichment was 0.409

Short answer for PRAGVYPEKDQ [DNM2_Y626_L621P] : phosphorylation enrichment was 0.642

Short answer for ERDYTYDELLN [EIF2S2_Y176_E177D] : phosphorylation enrichment was 0.558

Short answer for GNFSGYDDAWD [POLR1C_Y36_YF] : phosphorylation enrichment was 0.428

Short answer for EKKDIYKAGEQ [CFH_Y1008_V1007I] : phosphorylation enrichment was 0.327

Short answer for WEQELYSQLVF [WAS_Y102_YF] : phosphorylation enrichment was 4.85

Short answer for HRGHLYLAIEY [TEK_Y899_Y897H] : phosphorylation enrichment was 0.942

Short answer for SHTPSYCDESL [RITA1_Y109] : phosphorylation enrichment was 0.502

Short answer for VPLATYMRIFK [RPL21_Y30_YF] : phosphorylation enrichment was 0.408

Short answer for KRLWDYGMSSS [F8_Y1728_E1723K] : phosphorylation enrichment was 0.399

Short answer for MSRYIYSTDYY [NTRK1_Y676_D674Y] : phosphorylation enrichment was 8.47

Short answer for NAPNSYGRRPI [CDKN2A_Y44] : phosphorylation enrichment was 0.692

Short answer for VFAADYFKLLG [ROR2_Y645_YF] : phosphorylation enrichment was 7.25

Short answer for DNACQYMLTDR [MYH7_Y164_Y162C] : phosphorylation enrichment was 0.614

Short answer for NQILPYIKELV [PPP2R1B_Y341] : phosphorylation enrichment was 0.579

Short answer for SIKDKYLTALY [KCNH2_Y611_V612L] : phosphorylation enrichment was 0.417

Short answer for DLFRLYVCVKE [ARID1B_Y1091] : phosphorylation enrichment was 0.389

Short answer for GDEEDYEEIPG [EGFR_opt_E_2015] : phosphorylation enrichment was 0.62

Short answer for KKMKRYHVGKV [HARS2_Y151] : phosphorylation enrichment was 0.298

Short answer for VIGRMYDFHVL [RPF2_Y109_YF] : phosphorylation enrichment was 0.472

Short answer for GMEIVYVYVKK [DNAI2_Y5] : phosphorylation enrichment was 0.967

Short answer for AIFEGYALPHA [ACTC1_Y171_P166A_YF] : phosphorylation enrichment was 0.549

Source of measurements: the supplement of paper PMC10065799
